targetSystem: Cin5 (UniProt P40917)
Sequence: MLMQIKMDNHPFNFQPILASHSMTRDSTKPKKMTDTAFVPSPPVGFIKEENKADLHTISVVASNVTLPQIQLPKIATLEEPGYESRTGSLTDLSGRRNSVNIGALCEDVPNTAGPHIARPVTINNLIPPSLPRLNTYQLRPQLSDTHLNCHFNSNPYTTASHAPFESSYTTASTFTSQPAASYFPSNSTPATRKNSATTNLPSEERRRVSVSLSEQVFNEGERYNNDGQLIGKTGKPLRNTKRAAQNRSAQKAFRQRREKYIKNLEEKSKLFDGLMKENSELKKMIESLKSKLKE
experiment: PBM E-score (8-mer binding enrichment) (E-score (-0.5 to 0.5)); higher = stronger / more preferred TF binding
particulars: protein concentration: 100 nM; construct: GST-full length
Whole data set: some 33,000 sequences, median “E-score (-0.5 to 0.5)” near -0.0059, cut for the highest 2% near 0.26. The sample holds the highest values, similar sequences and a random draw of the others, so the mix is not that of the screen.
property: PBM E-score

CCCTATGC    0.0135
TAGATCAA    0.0289
GACATAGC    0.0934
CGCTTACG    0.379
AATTCCAA    0.0946
CAAAGATA    0.12
AAATGTAA    0.14
CGCTTACC    0.15
GAATGGAA    0.181

====

Measured PBM E-score, listed per entry for reference.
targetSystem: Cin5 (UniProt P40917)
Sequence: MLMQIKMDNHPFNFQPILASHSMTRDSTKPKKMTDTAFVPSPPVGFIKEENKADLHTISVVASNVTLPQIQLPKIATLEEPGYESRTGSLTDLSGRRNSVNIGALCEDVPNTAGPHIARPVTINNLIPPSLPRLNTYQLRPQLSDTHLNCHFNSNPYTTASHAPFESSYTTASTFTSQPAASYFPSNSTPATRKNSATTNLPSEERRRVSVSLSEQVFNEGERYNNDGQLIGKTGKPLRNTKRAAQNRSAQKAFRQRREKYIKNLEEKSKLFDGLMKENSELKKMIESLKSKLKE
experiment: PBM E-score (8-mer binding enrichment) (E-score (-0.5 to 0.5)); higher = stronger / more preferred TF binding
particulars: protein concentration: 100 nM; construct: GST-full length
Whole data set: some 33,000 sequences, median “E-score (-0.5 to 0.5)” near -0.0059, cut for the highest 2% near 0.26. The full list was thinned out, with the highest values kept by preference.
property: PBM E-score

GTAAAGTA    0.305
ACGTCGAT    0.105
CCGGCGTC    -0.0574
ATAAAGTA    0.264
ATGATAGA    -0.0131
CTACTACA    0.173
ACAACCTA    0.0123
CTGCCCAG    -0.249
AGCCATCA    0.131
GCTATTAC    0.0669
CAATATCC    0.116
ATGATAGG    -0.0261
ATACTGAC    0.192
GAGGGGGA    -0.324
CAGCTAAG    -0.252
AATAAGCG    0.109
CACTGCAG    -0.0359
CATAAGGG    0.1
AACTCGAT    0.15
CTGATAAC    -0.054
GGCCCAAC    -0.0745
CGCATCGA    0.182
CAAGCCTA    -0.16
ACTATTAT    0.137
AACCAAAA    0.204
GAATTCTC    0.0994
AATATTCG    0.19
GTAAGCAA    0.419
AAATATCA    0.179
GTGATGTA    0.172
AATAACAC    0.247
CTAGGAAC    -0.124
ATTAACTC    0.17
CTACTAAA    -0.0525
CAATATTA    0.275
CAATATTG    0.205
AGACACCT    -0.048
CAATATCA    0.108
GAGTATCA    -0.0396
CAGTTGCA    -0.123
ATGATAAA    0.188
ATACTACC    -0.0132
ACTAACAT    0.192
ATTAACAC    0.271
GCTTTGTA    0.174
CTTAACAC    0.152
CGATGCGC    0.0485
AATATTCC    0.289
CACCAGCG    -0.0689
CTAGCCTC    -0.159
CTGATGTC    0.184
ATAAGACA    0.105
AAGACTCG    -0.0863
CATAACAA    0.252
TAATATCA    0.26
AACTTGCG    -0.0652
GTACTAAA    0.0965
TCAGGCAA    -0.0467
GCAAGCAA    0.00274
CAGTATCA    0.0369
AAATATTG    0.222
ATTAACTA    0.272
TGACTCCA    -0.17
ATACTGTC    0.208
